The reader will find reported IC50 at 24 h values listed item by item below.
Assay: in vitro
Assay type: cell-based
Details: human
readout.type: IC50 at 24 h

compound	measured.result
COC1C(O)C(COS(=O)(=O)O)OC(OC2C(O)C(COS(=O)(=O)O)OC(OC3C(C)OC(OC4C(OC5CCC6(C)C7CCC8(C)C(C(C)=O)CCC8(C)C7=CCC6C5(C)C)OCC(OS(=O)(=O)O)C4O)C(OC4OCC(O)C(O)C4O)C3O)C2O)C1O (stereo not shown) [koreoside A]	> 50 µM
COC1C(O)C(CO)OC(OC2C(O)C(CO)OC(OC3C(C)OC(OC4C(OC5CCC6(C)C7CCC89C(=O)OC(C)(CC=CC(C)(C)O)C8C(OC(C)=O)CC9(C)C7=CCC6C5(C)C)OCC(OS(=O)(=O)O)C4O)C(OC4OCC(O)C(O)C4O)C3O)C2O)C1O (stereo not shown) [frondoside A2-3]	> 50 µM
COC1C(O)C(COS(=O)(=O)O)OC(OC2C(O)C(COS(=O)(=O)O)OC(OC3C(C)OC(OC4C(OC5CCC6(C)C7=CCC8(C)C(C(C)=O)CCC8(C)C7CCC6C5(C)C)OCC(OS(=O)(=O)O)C4O)C(OC4OCC(O)C(O)C4O)C3O)C2O)C1O (stereo not shown) [isokoreoside A]	> 50 µM
C=C(C)CCCC1(C)OC(=O)C23CCC4C(=CCC5C(C)(C)C(OC6OCC(OS(=O)(=O)O)C(O)C6OC6OC(CO)C(OC7OC(CO)C(O)C(OC8OC(CO)C(O)C(OC)C8O)C7O)C(O)C6OC6OCC(O)C(O)C6O)CCC45C)C2(C)CC(OC(C)=O)C13 (stereo not shown) [okhotoside A2-1]	12.2 µM

---

Assay: in vitro
Assay type: cell-based
Conditions: human; MTT, 24 h incubation; read-out: Cytotoxicity, IC50, MCF-10A
The molecules listed here are annotated with their IC50.

molecule	IC50
COC1C(O)C(CO)OC(OC2C(O)C(CO)OC(OC3C(C)OC(OC4C(OC5CCC6(C)C7CCC89C(=O)OC(C)(CC(=O)CC(C)C)C8C(OC(C)=O)CC9(C)C7=CCC6C5(C)C)OCC(OS(=O)(=O)O)C4O)C(OC4OCC(O)C(O)C4O)C3O)C2O)C1O (centres unmarked) [cucumarioside A2-5]	14 µM
COC1C(O)C(CO)OC(OC2C(O)C(COS(=O)(=O)O)OC(OC3C(C)OC(OC4C(OC5CCC6(C)C7CCC8(C)C(C(C)=O)CCC8(C)C7=CCC6C5(C)C)OCC(OS(=O)(=O)O)C4O)C(OC4OCC(O)C(O)C4O)C3O)C2O)C1O (centres unmarked) [cucumarioside A3-2]	> 50 µM

---

Test system: triple-negative MDA-MB-231 human breast cancer cell line
Assay: cells
Assay type: cell-based
Conditions: Homo sapiens, MDA-MB-231, 24 h, read-out: Cytotoxicity, IC50, MDA-MB-231

compound	target.system	IC50
COC1C(O)C(COS(=O)(=O)O)OC(OC2C(O)C(COS(=O)(=O)O)OC(OC3C(C)OC(OC4C(OC5CCC6(C)C7=CCC8(C)C(C(C)=O)CCC8(C)C7CCC6C5(C)C)OCC(OS(=O)(=O)O)C4O)C(OC4OCC(O)C(O)C4O)C3O)C2O)C1O (stereo not shown) [isokoreoside A]	triple-negative MDA-MB-231 human breast cancer cell line	> 50 µM
COC1C(O)C(CO)OC(OC2C(O)C(CO)OC(OC3C(C)OC(OC4C(OC5CCC6(C)C7CCC89C(=O)OC(C)(CC=CC(C)(C)O)C8C(OC(C)=O)CC9(C)C7=CCC6C5(C)C)OCC(OS(=O)(=O)O)C4O)C(OC4OCC(O)C(O)C4O)C3O)C2O)C1O (stereo not shown) [frondoside A2-3]	triple-negative MDA-MB-231 human breast cancer cell line	> 50 µM
COC1C(O)C(COS(=O)(=O)O)OC(OC2C(O)C(COS(=O)(=O)O)OC(OC3C(C)OC(OC4C(OC5CCC6(C)C7CCC8(C)C(C(C)=O)CCC8(C)C7=CCC6C5(C)C)OCC(OS(=O)(=O)O)C4O)C(OC4OCC(O)C(O)C4O)C3O)C2O)C1O (stereo not shown) [koreoside A]	triple-negative MDA-MB-231 human breast cancer cell line	> 50 µM
COC1C(O)C(CO)OC(OC2C(O)C(CO)OC(OC3C(CO)OC(OC4C(OC5CCC6(C)C7CCC89C(=O)OC(C)(CCC=C(C)C)C8C(OC(C)=O)CC9(C)C7=CCC6C5(C)C)OCC(OS(=O)(=O)O)C4O)C(OC4OCC(O)C(O)C4O)C3O)C2O)C1O (stereo not shown) [djakonovioside D1]	triple-negative MDA-MB-231 human breast cancer cell line	> 50 µM
